Every entry's value here was drawn from the supplement of paper PMC11061612.

Tested on: Becker (Low Grade Glioma);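 note: after 72 h of two-drug dosing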
Assay: Bliss excess, mean over the matrix (fraction); higher = more synergy
Please go through the items and note down their Bliss excess.
One number for each entry.

Solved entries:
- COc1cccc(OCCCN)c1-c1cc(Nc2cnc(C#N)cn2)n[nH]1 [Prexasertib] + C=CCn1c(=O)c2cnc(Nc3ccc(N4CCN(C)CC4)cc3)nc2n1-c1cccc(C(C)(C)O)n1 [AZD1775] (first compound max 1 µM, partner max 1 µM): 0.0374
- Cc1c2c(nn1C)CSCc1cc(n(C)n1)CSc1cc(c3ccccc3c1)OCCCc1c(C(=O)O)n(C)c3c-2c(Cl)ccc13 [AZD5991] + Nc1ccn([C@@H]2O[C@H](CO)[C@@H](O)C2(F)F)c(=O)n1 [Gemcitabine] (first compound max 1 µM, 7x7, partner max 0.3 µM): -0.033
- CC1(C)CCC(CN2CCN(c3ccc(C(=O)NS(=O)(=O)c4ccc(NCC5CCOCC5)c([N+](=O)[O-])c4)c(Oc4cnc5[nH]ccc5c4)c3)CC2)=C(c2ccc(Cl)cc2)C1 [Venetoclax] + C=CCn1c(=O)c2cnc(Nc3ccc(N4CCN(C)CC4)cc3)nc2n1-c1cccc(C(C)(C)O)n1 [AZD1775] (first compound max 1 µM, partner max 1 µM): 0.0593
- CN(CCO)CC[C@H](CSc1ccccc1)Nc1ccc(S(=O)(=O)NC(=O)c2ccc(N3CCC([C@@H](O)c4ccccc4-c4ccc(Cl)cc4)CC3)cc2)cc1S(=O)(=O)C(F)(F)F [AZD4320] + C[C@@H](Nc1cc(F)cc(F)c1)c1cc(C(=O)N(C)C)cc2c(=O)cc(N3CCOCC3)oc12 [AZD8186] (first compound max 1 µM, 7x7, partner max 3 µM): 0.0186
- CN(CCO)CC[C@H](CSc1ccccc1)Nc1ccc(S(=O)(=O)NC(=O)c2ccc(N3CCC([C@@H](O)c4ccccc4-c4ccc(Cl)cc4)CC3)cc2)cc1S(=O)(=O)C(F)(F)F [AZD4320] + CS(=O)(=O)CCNCc1ccc(-c2ccc3ncnc(Nc4ccc(OCc5cccc(F)c5)c(Cl)c4)c3c2)o1 [Lapatinib] (first compound max 1 µM, 7x7, partner max 10 µM): 0.0497

Shifting focus to the molecule that follows.
## Input Need Bliss excess of Cc1c2c(nn1C)CSCc1cc(n(C)n1)CSc1cc(c3ccccc3c1)OCCCc1c(C(=O)O)n(C)c3c-2c(Cl)ccc13 [AZD5991] + C1CN(CCC1(C(=O)N[C@@H](CCO)C2=CC=C(C=C2)Cl)N)C3=NC=NC4=C3C=CN4 [Capivasertib] (first compound max 1 µM, 7x7, partner max 3 µM) , thanks.
## Output -0.0169

---

System: AN3-CA (Endometrial Carcinoma)
Experiment: combination Emax (second highest fraction inhibited in the dose matrix, 72 h); higher = more inhibition; extreme values may be limits of the assay
experimental_endpoint: combination Emax
Answers are plain numbers.

• CN(C)CCCOc1ccc(-c2ccc3ncc4c(c3c2)n(C2CCOCC2)c(=O)n4C)cn1 [AZD0156] + CCN(CCO)CCCOc1ccc2c(Nc3cc(CC(=O)Nc4cccc(F)c4)[nH]n3)ncnc2c1 [AZD2811] (first compound max 1 µM, 7x7, partner max 1 µM) = 0.27

Shifting focus to the molecule that follows.
## Input Need combination Emax of CN(CCO)CC[C@H](CSc1ccccc1)Nc1ccc(S(=O)(=O)NC(=O)c2ccc(N3CCC([C@@H](O)c4ccccc4-c4ccc(Cl)cc4)CC3)cc2)cc1S(=O)(=O)C(F)(F)F [AZD4320] + CN(C)CCCOc1ccc(-c2ccc3ncc4c(c3c2)n(C2CCOCC2)c(=O)n4C)cn1 [AZD0156] (first compound max 1 µM, 7x7, partner max 1 µM) , thanks.
## Output 0.27
